Origin of the recorded values: PubChem BioAssay (NCATS)

- target entity: Cytochrome P450 1A2 (Homo sapiens) (UniProt P05177)
- Sequence (P05177 whole entry, looked up): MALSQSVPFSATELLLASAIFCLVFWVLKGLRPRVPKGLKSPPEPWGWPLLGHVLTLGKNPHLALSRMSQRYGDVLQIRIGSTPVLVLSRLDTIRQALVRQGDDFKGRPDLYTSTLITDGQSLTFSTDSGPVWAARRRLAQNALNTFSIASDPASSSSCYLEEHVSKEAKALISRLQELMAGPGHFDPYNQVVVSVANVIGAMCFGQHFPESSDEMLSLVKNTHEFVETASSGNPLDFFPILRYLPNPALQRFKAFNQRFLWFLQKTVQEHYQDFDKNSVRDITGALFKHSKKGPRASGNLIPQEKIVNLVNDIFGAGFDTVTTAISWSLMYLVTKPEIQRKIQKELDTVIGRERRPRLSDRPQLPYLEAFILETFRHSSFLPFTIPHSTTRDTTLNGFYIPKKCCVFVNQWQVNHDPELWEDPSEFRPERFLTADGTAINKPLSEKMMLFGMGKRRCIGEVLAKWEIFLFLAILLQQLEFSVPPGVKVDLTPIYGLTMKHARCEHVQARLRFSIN
- method description: p450-cyp1a2 (AID 410); further: potency means the concentration at half of the fitted maximal effect
- condition set: recombinant CYP1A2, luciferin-ME demethylation, luminescence; series mostly up to 57 µM
Results filed as inconclusive are left out. Calls of active or inactive are those of the source. The call rests on the fitted dose curve.
readout: Potency

Field: example entries. Status: answers known.
| compound | target entity | readout | recorded value |
| --- | --- | --- | --- |
| CC(C)=CCC/C(C)=C/COc1c2ccoc2cc2oc(=O)ccc12 | Cytochrome P450 1A2 (Homo sapiens) (UniProt P05177) | Potency | 0.316 µM (active) |
| CC(C)C[C@@H](CC(=O)N[C@@H](CCC(=O)O)CC(=O)O)NC(=O)[C@@H]1CNCC[C@H]1NC(=O)C[C@H](CCCN)NC(=O)C[C@H](Cc1ccccc1)NC(=O)[C@@H]1CNCC[C@H]1N | Cytochrome P450 1A2 (Homo sapiens) (UniProt P05177) | Potency | 31.6 µM (active) |
| CC(C)C[C@@H](CC(=O)N[C@@H](CCCN)CC(=O)N[C@@H]1CCCC[C@H]1C(=O)N[C@H](CC(=O)N[C@@H](CCC(=O)O)CC(=O)O)CC(C)C)NC(=O)[C@@H]1CCCC[C@H]1N | Cytochrome P450 1A2 (Homo sapiens) (UniProt P05177) | Potency | inactive |
| CC(C)[C@@H](CC(=O)N[C@@H]1CCCC[C@H]1C(=O)N[C@H](CC(=O)N[C@@H](CCC(=O)O)CC(=O)O)Cc1ccccc1)NC(=O)C[C@H](CO)NC(=O)[C@@H]1CCCC[C@H]1N | Cytochrome P450 1A2 (Homo sapiens) (UniProt P05177) | Potency | inactive |

Observed Potency on Cytochrome P450 1A2 (Homo sapiens) (UniProt P05177) for "COC(=O)[C@@]1(Cc2ccc(OC)cc2)[C@H]2c3cc(C(=O)N4CCCC4)n(Cc4ccc(Cl)c(C(F)(F)F)c4)c3C[C@H]2CN1C(=O)c1ccccc1" , please.
12.6 µM (active)

Observed Potency on Cytochrome P450 1A2 (Homo sapiens) (UniProt P05177) for "COc1ccc(-c2oc3cc(OC)c(OC(C)=O)c(OC)c3c(=O)c2OC)cc1OC(C)=O" , please.
12.6 µM (active)

Observed Potency on Cytochrome P450 1A2 (Homo sapiens) (UniProt P05177) for "CC(C)[C@@H](CC(=O)N[C@@H]1CCCC[C@H]1C(=O)N[C@H](CC(=O)N[C@@H](CCC(=O)O)CC(=O)O)Cc1c[nH]c2ccccc12)NC(=O)C[C@H](Cc1ccccc1)NC(=O)[C@@H]1CNCC[C@H]1N" , please.
inactive

Observed Potency on Cytochrome P450 1A2 (Homo sapiens) (UniProt P05177) for "C[C@@H]1C[C@@]2(C)Oc3ccccc3[C@H]3OC[C@]1(COC(=O)Nc1ccccc1)[C@@H](C)[C@@H]32" , please.
15.8 µM (active)

Observed Potency on Cytochrome P450 1A2 (Homo sapiens) (UniProt P05177) for "NCCC[C@@H](CC(=O)N[C@@H]1CCNC[C@H]1C(=O)N[C@H](CC(=O)N[C@@H](CCC(=O)O)CC(=O)O)Cc1c[nH]c2ccccc12)NC(=O)C[C@H](Cc1c[nH]c2ccccc12)NC(=O)[C@@H]1CNCC[C@H]1N" , please.
inactive

Observed Potency on Cytochrome P450 1A2 (Homo sapiens) (UniProt P05177) for "CC(C)[C@@H](CC(=O)N[C@@H]1CCNC[C@H]1C(=O)N[C@H](CC(=O)N[C@@H](CCC(=O)O)CC(=O)O)Cc1c[nH]c2ccccc12)NC(=O)C[C@H](Cc1c[nH]c2ccccc12)NC(=O)[C@@H]1CCCC[C@H]1N" , please.
inactive

Observed Potency on Cytochrome P450 1A2 (Homo sapiens) (UniProt P05177) for CCCC[C@@H]1C[C@H]1C(NC(=O)c1ccccc1)c1ccc(Cl)cc1 (stereo partly drawn) , please.
1 µM (active)

Observed Potency on Cytochrome P450 1A2 (Homo sapiens) (UniProt P05177) for COC(=O)C1(CC(C)C)C=C2C(=C(c3ccccc3)C(=O)C2C)CN1 (stereo not drawn) , please.
15.8 µM (active)

Observed Potency on Cytochrome P450 1A2 (Homo sapiens) (UniProt P05177) for "COC(=O)[C@@]1(Cc2ccc(F)cc2)[C@@H]2[C@@H](CC(=O)[C@H]2CC(=O)C(=O)N(C)C)CN1C(=O)c1ccccc1" , please.
inactive
